This collection of values is drawn from ChEMBL document CHEMBL4364345.

System: Mycobacteroides abscessus
testProtocol: Antimicrobial activity against Mycobacterium abscessus clinical isolate at 50 ug/disk incubated for 4 days by agar disk diffusion method
Assay type: functional
measurementSetup: 96 h, read-out: DIZ
compounds and their reported zone of inhibition at 50 µg/disc
Field format: number, assumed mm, no unit text.

Some solved cases for reference:
O=C(Nc1nnc(-c2ccc(F)cc2)o1)c1ccc(Cl)cc1 | 6
O=C(Nc1ncc(-c2ccc(F)cc2)o1)c1ccc(Cl)cc1 | 7
O=C(Nc1nnc(-c2ccc(C(F)(F)F)cc2)o1)c1ccc(Cl)nc1 | 14

Enquiry: # zone of inhibition at 50 µg/disc lookup, item O=C(Nc1nnc(-c2ccc(C(F)(F)F)cc2)o1)c1cccc(Cl)c1
Return: 9
